Entries and their OD450 values follow.
MEASUREMENT_TARGET: T1, human MSLN-R1-his protein (human, UniProt Q13421 296-390)
T1 construct: Self-made in HEK293E cells; also called human MSLN-R1 protein; hMSLN-R1-his; not shown: His tag
T1 chain: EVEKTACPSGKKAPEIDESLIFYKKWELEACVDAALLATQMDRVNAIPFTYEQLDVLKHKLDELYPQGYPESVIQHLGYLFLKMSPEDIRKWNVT
TEST_SUMMARY: ELISA on coated antigen, antibody 100 nM

>  <BINDER>
S009-F3.80.22 (antibody, human IgG1, kappa, V domains shown, Human-murine chimeric antibody: murine VH/VL on human IgG1 heavy and kappa light constant regions) VH: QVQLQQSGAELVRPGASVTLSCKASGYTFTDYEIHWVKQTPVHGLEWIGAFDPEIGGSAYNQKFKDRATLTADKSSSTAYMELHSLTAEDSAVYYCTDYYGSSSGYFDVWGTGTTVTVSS VL: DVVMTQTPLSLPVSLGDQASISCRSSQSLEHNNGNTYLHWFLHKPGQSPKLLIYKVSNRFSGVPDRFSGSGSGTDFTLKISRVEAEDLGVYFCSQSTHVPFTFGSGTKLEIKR

>  <UNITS_TEXT>
OD450

>  <OD450>
0.07

$$$$
>  <BINDER>
S009-F3.7.3 (antibody, human IgG1, kappa, V domains shown, Human-murine chimeric antibody: murine VH/VL on human IgG1 heavy and kappa light constant regions) VH: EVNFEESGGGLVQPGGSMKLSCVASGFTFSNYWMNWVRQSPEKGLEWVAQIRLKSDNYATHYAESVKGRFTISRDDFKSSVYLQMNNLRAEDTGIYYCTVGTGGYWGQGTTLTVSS VL: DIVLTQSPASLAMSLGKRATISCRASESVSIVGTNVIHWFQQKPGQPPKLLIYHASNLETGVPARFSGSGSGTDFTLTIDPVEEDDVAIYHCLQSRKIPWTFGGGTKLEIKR

>  <UNITS_TEXT>
OD450

>  <OD450>
0.12

$$$$
>  <BINDER>
S009-F3.16.1 (antibody, human IgG1, kappa, V domains shown, Human-murine chimeric antibody: murine VH/VL on human IgG1 heavy and kappa light constant regions) VH: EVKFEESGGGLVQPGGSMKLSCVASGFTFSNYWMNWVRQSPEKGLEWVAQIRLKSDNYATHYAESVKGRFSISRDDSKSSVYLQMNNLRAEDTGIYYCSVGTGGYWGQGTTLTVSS VL: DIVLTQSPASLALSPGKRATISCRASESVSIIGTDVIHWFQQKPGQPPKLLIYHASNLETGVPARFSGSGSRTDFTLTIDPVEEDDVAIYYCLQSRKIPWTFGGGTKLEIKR

>  <UNITS_TEXT>
OD450

>  <OD450>
0.1

$$$$
